Assayed target: human PPARγ receptor (Homo sapiens, UniProt P37231)
Construct: expressed in transfected cells; host or cells: CV-1 cells, pSG5-based Gal4-PPAR expression vector
Sequence (P37231 204-505): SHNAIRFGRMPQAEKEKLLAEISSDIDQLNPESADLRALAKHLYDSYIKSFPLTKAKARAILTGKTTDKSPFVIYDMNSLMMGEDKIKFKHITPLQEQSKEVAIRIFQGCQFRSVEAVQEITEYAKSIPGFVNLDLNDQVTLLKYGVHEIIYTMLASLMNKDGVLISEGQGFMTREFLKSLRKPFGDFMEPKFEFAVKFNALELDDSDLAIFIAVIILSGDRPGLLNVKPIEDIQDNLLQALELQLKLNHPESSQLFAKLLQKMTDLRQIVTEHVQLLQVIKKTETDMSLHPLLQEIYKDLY
Experiment notes: Luciferase assay using human PPARγ receptor (Gal4 chimera, CV-1 cells)
Type: cell-based
Measurement parameters: 24 h, 0.1 μM, luciferase activity of Pioglitazone at 1 μM = 100, read-out: PPARγ agonist activity, Relative activity
Outcome measure: Emax at 0.1 µM (%)
Please give a number only; it is taken to be in %.

Examples with their reported Emax at 0.1 µM follow.
[[record]]
molecule = "COc1cc2sc(/C=C(\\Oc3ccc(C(C)C)cc3)C(=O)O)cc2c(Cl)c1OC [Example 6]"
assayed_target = "human PPARγ receptor (Homo sapiens, UniProt P37231)"
outcome_measure = "Emax at 0.1 µM"
obs_value = 1.2

[[record]]
molecule = "CC(C)c1ccc(NC(=O)C(C)(Cc2cc3ccccc3s2)C(=O)O)cc1 (stereo not drawn) [Example 12]"
assayed_target = "human PPARγ receptor (Homo sapiens, UniProt P37231)"
outcome_measure = "Emax at 0.1 µM"
obs_value = 0.3

[[record]]
molecule = "COc1cc2sc(CC(C)(Oc3ccc(C(C)C)cc3)C(=O)O)cc2c(Cl)c1OC (stereo not drawn) [Example 4]"
assayed_target = "human PPARγ receptor (Homo sapiens, UniProt P37231)"
outcome_measure = "Emax at 0.1 µM"
obs_value = 8


Lookup: Please report the measured Emax at 0.1 µM for COc1cc2cc(CC(C)(Oc3ccc(C#N)cc3)C(=O)O)sc2cc1OC (stereo not drawn) [Example 2]
Found: 17.8

Lookup: Please report the measured Emax at 0.1 µM for CC(Cc1cc2ccccc2s1)(C(=O)O)C(=O)N1CCOCC1 (stereo not drawn) [Example 11]
Found: 0.3

---

# Emax at 0.1 µM annotations
Assayed target: human PPARα receptor (Homo sapiens, UniProt Q07869)
Construct: and; expressed in transfected cells; host or cells: CV-1 cells, pSG5-based Gal4-PPAR expression vector
Sequence (Q07869 167-468): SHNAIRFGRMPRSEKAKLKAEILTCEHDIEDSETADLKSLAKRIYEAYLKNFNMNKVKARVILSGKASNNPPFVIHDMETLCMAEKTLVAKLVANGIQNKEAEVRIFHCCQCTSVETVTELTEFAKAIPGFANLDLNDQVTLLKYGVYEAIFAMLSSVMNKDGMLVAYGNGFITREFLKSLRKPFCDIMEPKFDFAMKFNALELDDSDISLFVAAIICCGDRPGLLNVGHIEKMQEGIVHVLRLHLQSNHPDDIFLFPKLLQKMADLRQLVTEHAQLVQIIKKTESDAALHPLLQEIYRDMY
Experiment notes: Luciferase assay using human PPARα receptor (Gal4 chimera, CV-1 cells)
Type: cell-based
Measurement parameters: 24 h, 0.1 μM, luciferase activity of Wy-14.643 at 10 μM = 100, read-out: PPARα agonist activity, Relative activity
Please append the unit to your numeric answer.

Examples with their reported Emax at 0.1 µM follow.
[[record]]
compound = "COc1cc2cc(CC(C)(Oc3ccc(C#N)cc3)C(=O)O)sc2cc1OC (centres unmarked)"
outcome_measure = "Emax at 0.1 µM"
obs_value = "0.1%"

[[record]]
compound = "COc1cc2sc(/C=C(\\Oc3ccc(C(C)C)cc3)C(=O)O)cc2c(Cl)c1OC"
outcome_measure = "Emax at 0.1 µM"
obs_value = "0.1%"

[[record]]
compound = "COc1cc2cc(CC(C)(C(=O)O)C(=O)NC3CCCCC3)sc2cc1OC (centres unmarked)"
outcome_measure = "Emax at 0.1 µM"
obs_value = "0.2%"

[[record]]
compound = "CCOC(=O)C(C)(Cc1cc2cc(OC)c(OC)cc2s1)Oc1ccc(C#N)cc1 (centres unmarked)"
outcome_measure = "Emax at 0.1 µM"
obs_value = "0.2%"


Lookup: Please report the measured Emax at 0.1 µM for CC(Cc1cc2ccccc2s1)(C(=O)O)C(=O)NC1CCCCC1 (centres unmarked)
Found: 0.1%

---

Assayed target: human PPARγ receptor (Homo sapiens)
Construct: expressed in transfected cells; host or cells: CV-1 cells, pSG5-based Gal4-PPAR expression vector
Experiment notes: Luciferase assay using human PPARγ receptor (Gal4 chimera, CV-1 cells)
Assay type: cell-based
Measurement parameters: 24 h, 10 μM, luciferase activity of Pioglitazone at 1 μM = 100, read-out: PPARγ agonist activity, Relative activity
Where a name gives a salt, the structure may show the parent alone.
Note to self: use 1 only for Emax at 10 µM readings below 60%; a reading exactly at 60% still gets 0.

[[record]]
compound = "CCCCNC(=O)C(C)(Cc1cc2cc(OC)c(OC)cc2s1)Oc1ccc(C#N)cc1 (centres unmarked)"
category = 1


Lookup: For this compound, is Emax at 10 µM lower than 60%? COc1cc2cc(CC(C)(C(=O)O)C(=O)NC3CCCCC3)sc2cc1OC (centres unmarked)
Found: 1

Lookup: For this compound, is Emax at 10 µM lower than 60%? COc1cc2cc(CC(C)(Oc3ccc(C#N)cc3)C(=O)O)sc2cc1OC (centres unmarked)
Found: 0

Lookup: For this compound, is Emax at 10 µM lower than 60%? COc1cc2sc(CC(C)(Oc3ccc(C(C)C)cc3)C(=O)O)cc2c(Cl)c1OC (centres unmarked)
Found: 0

Lookup: For this compound, is Emax at 10 µM lower than 60%? CC(C)c1ccc(NC(=O)C(C)(Cc2cc3ccccc3s2)C(=O)O)cc1 (centres unmarked)
Found: 1

Lookup: For this compound, is Emax at 10 µM lower than 60%? CCOC(=O)C(C)(Cc1cc2cc(OC)c(OC)cc2s1)Oc1ccc(C#N)cc1 (centres unmarked)
Found: 0

Lookup: For this compound, is Emax at 10 µM lower than 60%? COc1cc2cc(CC(C)(Oc3ccc(C(=N)N4CCOCC4)cc3)C(=O)O)sc2cc1OC (centres unmarked) [Example 5, Hydrochloride]
Found: 1

---

Assayed target: human PPARγ receptor (Homo sapiens)
Construct: expressed in transfected cells; host or cells: CV-1 cells, pSG5-based Gal4-PPAR expression vector
Sequence (P37231 204-505): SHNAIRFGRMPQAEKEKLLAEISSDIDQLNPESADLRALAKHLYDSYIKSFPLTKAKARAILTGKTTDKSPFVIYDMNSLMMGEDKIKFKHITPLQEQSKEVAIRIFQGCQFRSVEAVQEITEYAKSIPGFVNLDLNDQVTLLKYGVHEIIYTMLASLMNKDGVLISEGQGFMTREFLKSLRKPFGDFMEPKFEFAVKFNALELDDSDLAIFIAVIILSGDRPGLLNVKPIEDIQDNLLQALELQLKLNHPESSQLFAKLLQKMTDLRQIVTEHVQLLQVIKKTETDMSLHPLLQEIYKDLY
Experiment notes: Luciferase assay using human PPARγ receptor (Gal4 chimera, CV-1 cells)
Assay type: cell-based
Measurement parameters: 24 h, 0.1 μM, luciferase activity of Pioglitazone at 1 μM = 100, read-out: PPARγ agonist activity, Relative activity
Outcome measure: Emax at 0.1 µM
Please append the unit to your numeric answer.

Examples with their reported Emax at 0.1 µM follow.
[[record]]
molecule = "CCCCNC(=O)C(C)(Cc1cc2cc(OC)c(OC)cc2s1)Oc1ccc(C#N)cc1 (stereo not shown) [Example 16]"
assayed_target = "human PPARγ receptor (Homo sapiens)"
obs_value = "0.4%"

[[record]]
molecule = "CC(Cc1cc2ccccc2s1)(C(=O)O)C(=O)NC1CCCCC1 (stereo not shown) [Example 10]"
assayed_target = "human PPARγ receptor (Homo sapiens)"
obs_value = "1.2%"

[[record]]
molecule = "COc1cc2cc(CC(C)(C(=O)O)C(=O)NC3CCCCC3)sc2cc1OC (stereo not shown) [Example 14]"
assayed_target = "human PPARγ receptor (Homo sapiens)"
obs_value = "0.3%"


Next item in the queue.
Lookup: State, for human PPARγ receptor (Homo sapiens), measured Emax at 0.1 µM of the molecule listed here: COc1cc2cc(CC(C)(Oc3ccc(C#N)cc3)C(N)=O)sc2cc1OC (stereo not shown) [Example 15]
Found: 0.5%

---

Assayed target: human PPARα receptor (Homo sapiens, UniProt Q07869)
Construct: and; expressed in transfected cells; host or cells: CV-1 cells, pSG5-based Gal4-PPAR expression vector
Experiment notes: Luciferase assay using human PPARα receptor (Gal4 chimera, CV-1 cells)
Format: cell-based
Measurement parameters: 24 h, 1 μM, luciferase activity of Wy-14.643 at 10 μM = 100, read-out: PPARα agonist activity, Relative activity
Where a name gives a salt, the structure may show the parent alone.
Outcome measure: Emax at 1 µM (%)
Please give a number only; it is taken to be in %.

Examples with their reported Emax at 1 µM follow.
[[record]]
compound = "CCOC(=O)C(C)(Cc1cc2cc(OC)c(OC)cc2s1)Oc1ccc(C#N)cc1 (centres unmarked)"
obs_value = 0.2

[[record]]
compound = "CCOC(=O)C(C)(Cc1cc2ccccc2s1)C(N)=O (centres unmarked)"
obs_value = 0.1

[[record]]
compound = "COc1cc2cc(CC(C)(Oc3ccc(C#N)cc3)C(=O)O)sc2cc1OC (centres unmarked)"
obs_value = 0.1

[[record]]
compound = "CC(Cc1cc2ccccc2s1)(C(=O)O)C(=O)N1CCOCC1 (centres unmarked)"
obs_value = 0.2


Lookup: Please report the measured Emax at 1 µM for COc1cc2cc(CC(C)(Oc3ccc(C(=N)N4CCOCC4)cc3)C(=O)O)sc2cc1OC (centres unmarked) [Example 5, Hydrochloride]
Found: 0.3
